Attribute: hIR-B-phosphorylation [EC50 nM] mean
Assayed target: human insulin receptor isoform B (human, UniProt P06213 28-1382)
Run description: cell-based or functional assay
Just the number please, in nM, no unit attached.

Some solved cases for reference:
Binder	hIR-B-phosphorylation [EC50 nM] mean (nM)
scl-Fc fusion protein INS021 (Fc fusion) SFVNQHLCGSHLVEALELVCGERGFHYTPKTEEYPGDVGIVEQCCTSICSLSQLENYCGGEAEDLQVGQVELGGGPGAGSLQLALEGSLQGGPSVFLFPPKPKDTLMISRTPEVTCVVVDVSHEDPEVKFNWYVDGVEVHNAKTKPREEQYNSTYRVVSVLTVLHQDWLNGKEYKCKVSNKALPAPIEKTISKAKGQPREPQVYTLPPSRDELTKNQVSLTCLVKGFYPSDIAVEWESNGQPENNYKTTPPVLDSDGSFFLYSKLTVDKSRWQQGNVFSCSVMHEALHNHYTQKSLSLSPGGGGGSAESKYGPPCPPCPA	288
scl-Fc fusion protein INS016 (Fc fusion) FVNQHLCGSHLVEALHLVCGERGFHYTPKTGSYPGGVGIVEQCCTSICSLSQLENYCGGEAEDLQVGQVELGGGPGAGSLQPEGSLQGGPSVFLFPPKPKDTLMISRTPEVTCVVVDVSHEDPEVKFNWYVDGVEVHNAKTKPREEQYNSTYRVVSVLTVLHQDWLNGKEYKCKVSNKALPAPIEKTISKAKGQPREPQVYTLPPSRDELTKNQVSLTCLVKGFYPSDIAVEWESNGQPENNYKTTPPVLDSDGSFFLYSKLTVDKSRWQQGNVFSCSVMHEALHNHYTQKSLSLSPGGGGGSAESKYGPPCPPCPA	58.8
scl-Fc fusion protein INS014 (Fc fusion) SFVNQHLCGSHLVEALHLVCGERGFHYTPKTGSYPGGVGIVEQCCTSICSLSQLEDYCGGEAEDLQVGQVELGGGPGAGSLQPEGSLQGGPSVFLFPPKPKDTLMISRTPEVTCVVVDVSHEDPEVKFNWYVDGVEVHNAKTKPREEQYNSTYRVVSVLTVLHQDWLNGKEYKCKVSNKALPAPIEKTISKAKGQPREPQVYTLPPSRDELTKNQVSLTCLVKGFYPSDIAVEWESNGQPENNYKTTPPVLDSDGSFFLYSKLTVDKSRWQQGNVFSCSVMHEALHNHYTQKSLSLSPGGGGGSAESKYGPPCPPCPA	47.9
scl-Fc fusion protein INS023 (Fc fusion) SFVNQHLCGSHLVEALELVCGERGFHYTPKTGSYPGGVGIVEQCCTSICSLSQLENYCGGEAEDLQVGQVELGGGPGAGSLQPEGSLQGGPSVFLFPPKPKDTLMISRTPEVTCVVVDVSHEDPEVKFNWYVDGVEVHNAKTKPREEQYNSTYRVVSVLTVLHQDWLNGKEYKCKVSNKALPAPIEKTISKAKGQPREPQVYTLPPSRDELTKNQVSLTCLVKGFYPSDIAVEWESNGQPENNYKTTPPVLDSDGSFFLYSKLTVDKSRWQQGNVFSCSVMHEALHNHYTQKSLSLSPGGGGGSAESKYGPPCPPCPA	59.8

Name the recorded hIR-B-phosphorylation [EC50 nM] mean of the binder listed here: scl-Fc fusion protein INS005 (Fc fusion) SFVNQHLCGSHLVEALHLVCGERGFAYTDKTEEYPGDVGIVEQCCTSICSLEQLENYCGGEAEDLQVGQVELGGGPGAGSLQPEGSLQGGPSVFLFPPKPKDTLMISRTPEVTCVVVDVSHEDPEVKFNWYVDGVEVHNAKTKPREEQYNSTYRVVSVLTVLHQDWLNGKEYKCKVSNKALPAPIEKTISKAKGQPREPQVYTLPPSRDELTKNQVSLTCLVKGFYPSDIAVEWESNGQPENNYKTTPPVLDSDGSFFLYSKLTVDKSRWQQGNVFSCSVMHEALHNHYTQKSLSLSPGGGGGSAESKYGPPCPPCPA
522

Name the recorded hIR-B-phosphorylation [EC50 nM] mean of the binder listed here: scl-Fc fusion protein INS006 (Fc fusion) SFVNQHLCGSHLVEALELVCGERGFHYTDKTEEYPGDVGIVEQCCTSICSLEQLENYCGGEAEDLQVGQVELGGGPGAGSLQPEGSLQGGPSVFLFPPKPKDTLMISRTPEVTCVVVDVSHEDPEVKFNWYVDGVEVHNAKTKPREEQYNSTYRVVSVLTVLHQDWLNGKEYKCKVSNKALPAPIEKTISKAKGQPREPQVYTLPPSRDELTKNQVSLTCLVKGFYPSDIAVEWESNGQPENNYKTTPPVLDSDGSFFLYSKLTVDKSRWQQGNVFSCSVMHEALHNHYTQKSLSLSPGGGGGSAESKYGPPCPPCPA
388

Name the recorded hIR-B-phosphorylation [EC50 nM] mean of the binder listed here: scl-Fc fusion protein INS009 (Fc fusion) SFVNQHLCGSHLVEALELVCGERGFHYTPKTGSYPGGVGIVEQCCTSICSLEQLENYCGGEAEDLQVGQVELGGGPGAGSLQPEGSLQGGPSVFLFPPKPKDTLMISRTPEVTCVVVDVSHEDPEVKFNWYVDGVEVHNAKTKPREEQYNSTYRVVSVLTVLHQDWLNGKEYKCKVSNKALPAPIEKTISKAKGQPREPQVYTLPPSRDELTKNQVSLTCLVKGFYPSDIAVEWESNGQPENNYKTTPPVLDSDGSFFLYSKLTVDKSRWQQGNVFSCSVMHEALHNHYTQKSLSLSPGGGGGSAESKYGPPCPPCPA
94.1
